test: Microsomal stability, dog (DLM); assay type: in vitro ADME; conditions: liver microsomes; (beagle) dog microsomes, 0.5 mg protein/mL, 1 µM test compound
Reported CLint scaled at 1 µM is given for each of the following compounds.
Write it as a number; the unit mL/min/kg goes unstated.

1. O=C1OCC(c2ccc(C3CCC(F)(F)CC3)cc2)N1c1ccc2[nH]cnc2c1 (single isomer, unassigned) [(19)-ent2]
21.8

The record that follows has no CLint scaled at 1 µM shown yet.
Request: Quick one: give measured CLint scaled at 1 µM for O=C1OCC(c2ccc(N3CCCC3)cc2)N1c1ccc2[nH]cnc2c1 (single isomer, unassigned) [(18)-ent2]
Result: 32.8

---

experiment: CACO-2-based cell-permeation and efflux; assay type: in vitro ADME; conditions: human, Caco-2, pH 7.4, B2A, 2 µM compound, pH 7.40
observation-type: Papp B→A at 2 h, 2 µM (×10⁻⁶ cm/s)
Write it as a number; the unit ×10⁻⁶ cm/s goes unstated.

Sample records with Papp B→A at 2 h, 2 µM:
1) O=C1OC[C@H](c2ccc(-c3cnn(C(F)(F)F)c3)cc2F)N1c1ccc2[nH]cnc2c1
21.9
2) O=C1OCC(c2ccc(C3CCC(F)(F)CC3)cc2)N1c1ccc2[nH]cnc2c1 (single isomer, unassigned)
23.9
3) O=C1OCC(c2ccc(N3CCCC3)cc2)N1c1ccc2[nH]cnc2c1 (single isomer, unassigned)
18.8

The record that follows has no Papp B→A at 2 h, 2 µM shown yet.
Request: Quick one: give measured Papp B→A at 2 h, 2 µM for O=C1OCC(c2cc(F)cc(C(F)(F)F)c2)N1c1ccc2[nH]cnc2c1 (single isomer, unassigned)
Result: 36.8

---

assay: Microsomal stability, human (HLM); assay type: in vitro ADME; details: liver microsomes, 0.5 mg protein/mL, 1 µM test compound
Reported CLint scaled at 1 µM is given for each of the following compounds.
Write it as a number; the unit mL/min/kg goes unstated.

1) O=C1OCC(c2ccc(N3CCCC3)cc2)N1c1ccc2[nH]cnc2c1 (single isomer, unassigned)
73.8

The record that follows has no CLint scaled at 1 µM shown yet.
Request: Quick one: give measured CLint scaled at 1 µM for O=C1OCC(c2ccc(C3CCC(F)(F)CC3)cc2)N1c1ccc2[nH]cnc2c1 (single isomer, unassigned)
Result: 19.7

---

tested on: pyroglutamylated CD47; experiment: Assay 3 - cell-based potency assay (pyroglutamylation in live cells, total CD47/pE-CD47 dual staining, FACS); set-up: species or system human; details: Homo sapiens, KBM-7, 72 h, IC50 of CC2C6 signal; KBM7 cells, 72 hours incubation
Reported IC50 is given for each of the following compounds.
Write your answer as a measured quantity: the number, then the unit.

Sample records with IC50:
1) O=C1OC[C@H](c2ccc(-c3cnn(C(F)(F)F)c3)c(F)c2F)N1c1ccc2[nH]cnc2c1 [(2)]
106 nM
2) O=C1OC[C@H](c2ccc(-c3ccc(C(F)(F)F)o3)cc2F)N1c1ccc2[nH]cnc2c1 [(7)]
503 nM
3) O=C1OC[C@H](c2ccc(-c3cnn(C(F)F)c3)cc2F)N1c1ccc2[nH]cnc2c1 [(12)]
157 nM

The record that follows has no IC50 shown yet.
Request: Quick one: give measured IC50 for O=C1OC[C@H](c2ccc(-c3ccn(C(F)(F)F)n3)cc2F)N1c1ccc2[nH]cnc2c1 [(5)]
Result: 659 nM

---

target: recombinant QC enzyme (Homo sapiens, UniProt Q16769); construct: bacterial expression of residues 33-361 of uniprot ID Q16769, fused to a His tag; His tag (cleaved yes); made in house; assay: Assay 2 - QC potency, fluorescent enzymatic assay (H-Gln-AMC, coupled pGAPase detection); type: biochemical; settings: 1 hour at 37°C
Sequence (Q16769 33-361): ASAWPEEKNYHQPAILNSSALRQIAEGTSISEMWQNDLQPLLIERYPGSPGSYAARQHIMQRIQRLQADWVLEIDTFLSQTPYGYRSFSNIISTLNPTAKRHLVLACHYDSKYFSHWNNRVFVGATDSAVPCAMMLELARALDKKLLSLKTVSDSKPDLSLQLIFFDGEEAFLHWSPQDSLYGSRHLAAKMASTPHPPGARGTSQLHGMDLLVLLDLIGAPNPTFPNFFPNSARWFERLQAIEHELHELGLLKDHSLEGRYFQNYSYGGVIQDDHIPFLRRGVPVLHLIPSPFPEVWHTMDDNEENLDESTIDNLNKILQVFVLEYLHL
observation-type: IC50 (nM)
Write it as a number; the unit nM goes unstated.

1) O=C1OCC(c2ccc(N3CCCC3)cc2)N1c1ccc2[nH]cnc2c1 (single isomer, unassigned) [(18)-ent2]
31.2
2) O=C1OC[C@H](c2ccc(-c3ccc(C(F)(F)F)s3)cc2F)N1c1ccc2[nH]cnc2c1
86
3) O=C1OCC(c2cc(F)cc(C(F)(F)F)c2)N1c1ccc2[nH]cnc2c1 (racemic) [(17)-Rac, reference compound]
1730
4) O=C1OC[C@H](c2ccc(-c3nc(C(F)(F)F)cs3)cc2F)N1c1ccc2[nH]cnc2c1
36.1
5) O=C1OC[C@H](c2ccc(-c3cc(C(F)(F)F)no3)cc2F)N1c1ccc2[nH]cnc2c1
24.3

Request: Quick one: give measured IC50 for O=C1OC[C@H](c2ccc(-c3ccn(C(F)(F)F)n3)cc2F)N1c1ccc2[nH]cnc2c1
Result: 34.7

Request: Quick one: give measured IC50 for O=C1OCC(c2ccc(N3CCCC3)cc2)N1c1ccc2[nH]cnc2c1 (racemic) [(18)-Rac, reference compound]
Result: 49.1

Request: Quick one: give measured IC50 for O=C1OC[C@H](c2ccc(-c3cnn(C(F)F)c3)cc2F)N1c1ccc2[nH]cnc2c1
Result: 7.5

Request: Quick one: give measured IC50 for O=C1OCC(c2cc(F)cc(C(F)(F)F)c2)N1c1ccc2[nH]cnc2c1 (single isomer, unassigned) [(17)-ent2]
Result: 1080

---

Reported IC50 is given for each of the following molecules.
target: recombinant QC enzyme (Homo sapiens, UniProt Q16769); construct: bacterial expression of residues 33-361 of uniprot ID Q16769, fused to a His tag; His tag (cleaved yes); made in house; assay: Assay 2 - QC potency, fluorescent enzymatic assay (H-Gln-AMC, coupled pGAPase detection); format: biochemical; conditions: 1 hour at 37°C
Write it as a number; the unit nM goes unstated.

Sample records with IC50:
1) O=C1OC[C@H](c2ccc(-c3cnn(CC(F)F)c3)cc2F)N1c1ccc2[nH]cnc2c1
8
2) O=C1OC[C@H](c2ccc(-c3cnn(CF)c3)cc2F)N1c1ccc2[nH]cnc2c1
11.3
3) O=C1OCC(c2ccc(N3CCCC3)cc2)N1c1ccc2[nH]cnc2c1 (single isomer, unassigned) [(18)-ent1, reference compound]
2530
4) O=C1OC[C@H](c2ccc(-c3noc(C(F)(F)F)n3)cc2F)N1c1ccc2[nH]cnc2c1
48.2

The record that follows has no IC50 shown yet.
Request: Quick one: give measured IC50 for O=C1OC[C@H](c2ccc(-c3cnn(C(F)(F)F)c3)c(F)c2F)N1c1ccc2[nH]cnc2c1
Result: 38.9

---

Reported Papp A→B at 2 h, 2 µM is given for each of the following compounds.
assay: CACO-2-based cell-permeation and efflux; type: in vitro ADME; settings: human, Caco-2, pH 7.4, A2B, 2 µM compound, pH 7.40
Write it as a number; the unit ×10⁻⁶ cm/s goes unstated.

Sample records with Papp A→B at 2 h, 2 µM:
1) O=C1OC[C@H](c2ccc(-c3cnn(C(F)(F)F)c3)cc2F)N1c1ccc2[nH]cnc2c1 [Compound (1)]
2
2) O=C1OCC(c2ccc(C3CCC(F)(F)CC3)cc2)N1c1ccc2[nH]cnc2c1 (single isomer, unassigned) [(19)-ent2]
3.9
3) O=C1OCC(c2cc(F)cc(C(F)(F)F)c2)N1c1ccc2[nH]cnc2c1 (single isomer, unassigned) [(17)-ent2]
1.5

The record that follows has no Papp A→B at 2 h, 2 µM shown yet.
Request: Quick one: give measured Papp A→B at 2 h, 2 µM for O=C1OCC(c2ccc(N3CCCC3)cc2)N1c1ccc2[nH]cnc2c1 (single isomer, unassigned) [(18)-ent2]
Result: 2.8

---

Target: human isoQC (Homo sapiens)
Construct: The Golgi luminal, enzymatically active region of human isoQC (S53-L382; see, e.g., Huang et al., 2011); GST (with enterokinase site) (N, cleaved yes); made in house; host or cells: E. coli
Sequence (Q9NXS2 53-382): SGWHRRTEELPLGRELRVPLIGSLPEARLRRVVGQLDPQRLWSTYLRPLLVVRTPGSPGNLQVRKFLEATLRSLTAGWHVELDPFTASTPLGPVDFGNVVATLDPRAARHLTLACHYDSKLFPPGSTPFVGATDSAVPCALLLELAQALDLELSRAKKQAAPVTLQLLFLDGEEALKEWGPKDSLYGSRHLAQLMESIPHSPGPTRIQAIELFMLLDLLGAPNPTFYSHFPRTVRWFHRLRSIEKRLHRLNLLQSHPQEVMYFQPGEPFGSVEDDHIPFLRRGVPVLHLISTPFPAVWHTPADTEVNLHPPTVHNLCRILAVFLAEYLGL
Experiment: Assay 1 - isoQC potency, fluorescent enzymatic assay (H-Gln-AMC, coupled pGAPase detection)
Type: biochemical
Settings: recombinant isoQC, 1 hour at 37°C
Procedure: The Golgi luminal, enzymatically active region of human isoQC (S53-L382; see, e.g., Huang et al., 2011) was obtained by expression in E. coli of an N-terminally GST Enterokinase and C-terminally 6xHis tagged construct in the pET41(+) vector and subsequent purification using Ni-NTA IMAC. […] IC50 values are calculated using non-linear regression analysis with GraphPad Prism software.
observation-type: IC50 (nM)
Write it as a number; the unit nM goes unstated.

1. O=C1OC[C@H](c2ccc(-c3cnn(C(F)(F)F)n3)cc2F)N1c1ccc2[nH]cnc2c1
3
2. O=C1OC[C@H](c2ccc(-c3cnn(C4CC(F)(F)C4)c3)cc2F)N1c1ccc2[nH]cnc2c1
5.1
3. O=C1OC[C@H](c2ccc(-c3ccc(C(F)(F)F)s3)cc2F)N1c1ccc2[nH]cnc2c1
13.4

Request: Enter measured IC50, system human isoQC (Homo sapiens), for the compound shown: O=C1OC[C@H](c2ccc(-c3cnn(C(F)F)c3)cc2F)N1c1ccc2[nH]cnc2c1
Result: 3.3

Request: Enter measured IC50, system human isoQC (Homo sapiens), for the compound shown: O=C1OC[C@H](c2ccc(-c3cnn(C4CC4(F)F)c3)cc2F)N1c1ccc2[nH]cnc2c1 (stereo partly drawn)
Result: 3.6

Request: Enter measured IC50, system human isoQC (Homo sapiens), for the compound shown: O=C1OCC(c2ccc(C3CCC(F)(F)CC3)cc2)N1c1ccc2[nH]cnc2c1 (single isomer, unassigned) [(19)-ent2]
Result: 35.8

Request: Enter measured IC50, system human isoQC (Homo sapiens), for the compound shown: O=C1OC[C@H](c2ccc(-c3cnn(CF)c3)cc2F)N1c1ccc2[nH]cnc2c1
Result: 4
